- study.target: Bromodomain adjacent to zinc finger domain protein 2B (Homo sapiens)
- experiment.summary: qHTS Assay for Inhibitors of BAZ2B; further: nearly all actives have a fitted effect of over 60% in size
- particulars: AlphaScreen BAZ2B-H3K14Ac peptide displacement; series mostly up to 114 µM
In all, about 360,000 compounds went through this assay and about 16,000 (4.4%) were called active. About 9% were inconclusive and are not listed. The call rests on the fitted dose curve; in most records, active means well fitted inhibition curve with a large enough effect; inconclusive means small, poorly fitted or top-dose-only effect; inactive means no such curve, though single readings can be large or run the other way. Many of the other results were omitted from the sample, so actives are more common in it than they were.
Response enum: active, inactive

Recorded test call requested for CCOC(=O)c1ccc(NC(=O)C2CC(=O)N(c3ccc(C(C)C)cc3)C2)cc1 (stereo not given)
inactive

Recorded test call requested for `Cc1cccc(N2CCN(C(=O)CCSCc3ccccc3F)CC2)c1C`
inactive

Recorded test call requested for `Cc1ccc(Cn2c(=O)n(-c3ccc(C)cc3)c(=O)c3c2c2cc(C)ccc2n3C)cc1`
inactive

Recorded test call requested for `COc1ccc(CCC(=O)NCc2ccc3c(c2)CCN3C(=O)c2ccc(F)cc2)cc1`
inactive

Recorded test call requested for CSc1ccc(C2c3c(oc4ccccc4c3=O)C(=O)N2CCCN2CCOCC2)cc1 (stereo not given)
inactive

Recorded test call requested for `O=C(c1ccc2ccccc2n1)N1CCN(c2ccccc2Cl)CC1`
active

Recorded test call requested for `COc1ccccc1N1CCN(C(=O)c2c(-c3c(Cl)cccc3Cl)noc2C)CC1`
inactive

Recorded test call requested for `CCOC(=O)c1cccc(NS(=O)(=O)c2cc(-c3cnc(C)o3)ccc2OC)c1`
inactive

Recorded test call requested for `FC(F)(F)c1nc2ccccc2nc1N/N=C/c1ccc(Cl)cc1`
inactive

Recorded test call requested for `O=C(c1ccncc1)N1CCN(c2ccc3ccccc3n2)CC1`
inactive

* * *

- study.target: Bromodomain adjacent to zinc finger domain protein 2B (Homo sapiens)
- experiment.summary: qHTS Assay for Inhibitors of BAZ2B; further: nearly all actives have a fitted effect of over 60% in size
- particulars: AlphaScreen BAZ2B-H3K14Ac peptide displacement; series mostly up to 114 µM
Hit rate of the full screen: of about 360,000 compounds, about 16,000 (4.4%) were called active. Not shown: some 9% with an inconclusive outcome. Calls follow the shape of the dose curve; as a rule, active = well fitted inhibition curve with a large enough effect; inconclusive = small, poorly fitted or top-dose-only effect; inactive = no such curve, though single readings can be large or run the other way. Only a selection was taken, and actives are over-represented in it overall.
Response enum: true (1) = active, false (0) = inactive

Recorded test call requested for `COc1ccc(-c2nn(-c3ccccc3)cc2/C=C2/SC(=S)N(CCCC(=O)O)C2=O)c(C)c1`
true (1)

Recorded test call requested for COc1ccccc1CNC(=O)C(Cc1ccccc1)NS(=O)(=O)c1ccc2c(c1)oc(=O)n2C (configuration not stated)
false (0)

Recorded test call requested for `COc1ccc(S(=O)(=O)N(CC(=O)N/N=C/c2ccccc2C(=O)O)c2ccccc2OC)cc1`
false (0)

Recorded test call requested for `Cc1ccc(NC(=O)c2oc3ccccc3c2NC(=O)Cc2cccs2)cc1`
false (0)

Recorded test call requested for `COc1ccc2oc(-c3ccc(C)c(NC(=O)c4sc5ccccc5c4Cl)c3)nc2c1`
false (0)

Recorded test call requested for `COc1cc(OC)cc(C(=O)Nc2c(C(=O)Nc3ccc(F)cc3)oc3ccccc23)c1`
false (0)

Recorded test call requested for `Cc1cccc(Cn2cnc3c(N)c(C)c(C)cc32)c1`
true (1)

Recorded test call requested for `CSc1nn(Cc2cccc(C)c2)c(N)c1S(=O)(=O)c1ccccc1`
false (0)

Recorded test call requested for `COc1cccc(C(=O)N(Cc2cccc(Cl)c2)Cc2ccco2)c1`
false (0)

Recorded test call requested for COc1ccc(CC(=O)Nc2nc3n(n2)C(c2ccccc2)CC(=O)N3)cc1OC (configuration not stated)
false (0)

Recorded test call requested for `Cc1ccc(NC(=S)Nc2ncccc2C)c(C)c1`
true (1)

Recorded test call requested for `COc1cccc(-c2cc(C(=O)Nc3ccc(C)cc3)[nH]n2)c1`
false (0)

Recorded test call requested for `COc1ccc(CCNC(=O)CCCn2c(=O)c3ccccc3n(Cc3ccc(C)cc3)c2=O)cc1OC`
false (0)

Recorded test call requested for `CCCN(C(=O)Cn1cc(S(=O)(=O)N2CCN(c3ccccc3F)CC2)c2ccccc2c1=O)c1cccc(C)c1`
false (0)

Recorded test call requested for `Cc1cc(NC(=O)c2cccc(Cl)c2)ccc1-c1cc2ccccc2oc1=O`
false (0)

Recorded test call requested for CC1=CC(C)(C)Nc2ccc(OC(=O)C(Cc3ccccc3)N3C(=O)C4CCCCC4C3=O)cc21 (configuration not stated)
false (0)

Recorded test call requested for CC(=O)N1c2ccc(S(=O)(=O)N3CCCCCC3)cc2CC1C(=O)NCc1ccccc1C (configuration not stated)
false (0)

Recorded test call requested for CC1=CC(C)(C)Nc2ccc(OC(=O)CN3C(=O)C4CCCCC4C3=O)cc21 (configuration not stated)
true (1)

Recorded test call requested for `COc1ccc(OCCn2ccnc2C)cc1`
true (1)

Recorded test call requested for CC1(C(=O)NCCc2c[nH]c3ccccc23)C=CC2(CCCCC2)N1C(=O)c1ccccc1 (configuration not stated)
false (0)

Recorded test call requested for `Cc1ccc(CCNC(=O)C2CCN(c3nnc(-n4cccc4CNc4ccc(C)cc4)s3)CC2)cc1`
false (0)

Recorded test call requested for `O=C(CCCn1c(=O)c2cccn2c2cccnc21)NCc1ccc(F)cc1`
false (0)

Recorded test call requested for `Cc1cc(Br)ccc1NC(=S)NC1CCCC1`
false (0)

Recorded test call requested for `Cc1ccc(/C=C2/SC(=S)N(CCC(=O)NCCCN3CCOCC3)C2=O)cc1`
false (0)

Recorded test call requested for `Cc1ccc(C)c(N2CCN(C(=O)CN3C(=O)COc4ccc(S(=O)(=O)N5CCCCCC5)cc43)CC2)c1`
false (0)

Recorded test call requested for `COc1ccc(OCCCn2c(C)nc3cc(C)c(C)cc32)cc1`
false (0)

Recorded test call requested for `O=C(NCc1cccnc1)C(=O)Nc1nc(-c2ccccc2)cs1`
false (0)

Recorded test call requested for COc1ccccc1CNC(=O)C(=O)NCC(c1ccco1)S(=O)(=O)c1ccc(F)cc1 (configuration not stated)
false (0)

Recorded test call requested for `CCCn1c2ccccc2c2cnn(CC(=O)NCC3CCN(Cc4ccc(C)cc4)CC3)c(=O)c21`
false (0)

Recorded test call requested for O=C(CN1C(=O)C2C3CCC(C3)C2C1=O)Oc1ccc2ccccc2c1 (configuration not stated)
false (0)

Recorded test call requested for `Cc1ccc(CSc2nc3ccsc3c(=O)n2CCC(C)C)cc1`
false (0)

Recorded test call requested for `COc1ccc(-c2nn(-c3ccccc3)cc2/C=C\C(=O)N2CCOCC2)cc1[N+](=O)[O-]`
false (0)

Recorded test call requested for `O=C(CCn1ccc([N+](=O)[O-])n1)Nc1nccs1`
false (0)

Recorded test call requested for `COc1ccccc1NC(=O)CN(c1ccccc1OC)S(=O)(=O)c1ccccc1`
false (0)

Recorded test call requested for `CCC(=O)N1CCc2cc(CNS(=O)(=O)c3ccc(Br)s3)ccc21`
false (0)

Recorded test call requested for Cc1c(Br)c([N+](=O)[O-])nn1C(C)C(=O)Nc1nccs1 (configuration not stated)
true (1)

Recorded test call requested for `COc1ccc(CCNCc2c(C(=O)O)c(C)n(Cc3cccc(C)c3)c2C)cc1OC`
false (0)

Recorded test call requested for COc1ccc(C(=O)NCC(c2ccc(N(C)C)cc2)N2CCc3ccccc32)c(OC)c1 (configuration not stated)
false (0)

Recorded test call requested for COc1ccc(S(=O)(=O)NCC(c2ccc(C)cc2)N2CCN(C)CC2)cc1OC (configuration not stated)
false (0)

Recorded test call requested for `COc1ccc(OCCn2cc(C(=O)C3CCCCC3)c3ccccc32)cc1`
false (0)

Recorded test call requested for `Cc1nn(-c2ccc([N+](=O)[O-])cc2)c(N)c1-c1ccccc1`
true (1)

Recorded test call requested for `Cc1ccc(NC(=O)CSc2cccc3cccnc23)c(C)c1`
false (0)

* * *

- study.target: Bromodomain adjacent to zinc finger domain protein 2B (Homo sapiens)
- experiment.summary: qHTS Assay for Inhibitors of BAZ2B; further: nearly all actives have a fitted effect of over 60% in size
- particulars: AlphaScreen BAZ2B-H3K14Ac peptide displacement; series mostly up to 114 µM
Screen size: about 360,000 compounds; about 16,000 (4.4%) were called active. Not shown: some 9% with an inconclusive outcome. Calls follow the shape of the dose curve; as a rule, active = well fitted inhibition curve with a large enough effect; inconclusive = small, poorly fitted or top-dose-only effect; inactive = no such curve, though single readings can be large or run the other way. The list comes from a sample in which actives are over-represented; it also holds close analogues and randomly drawn compounds.
Response enum: active, inactive

Recorded test call requested for `CCCCN(C)CCNC(=O)CSCc1ccc(C)cc1`
active

Recorded test call requested for `O=S(=O)(c1cccc2nonc12)N1CCN(c2cccc(Cl)c2)CC1`
active

Recorded test call requested for `CCC(=O)Nc1cccc(C(=O)OCc2cc(=O)n3nc(CC)sc3n2)c1`
inactive

Recorded test call requested for `Cc1cccc(C)c1-n1ncc(C(=O)NCCCN2CCCCC2)c1C1CCN(C(=O)OC(C)(C)C)CC1`
inactive

Recorded test call requested for `CC(=O)c1ccc(NC(=O)c2nc3nc(C)cc(C(F)F)n3n2)cc1`
inactive

Recorded test call requested for `COc1cccc(-c2nc(S(=O)(=O)c3ccc(C)cc3)c(NCc3ccccc3)o2)c1`
inactive

Recorded test call requested for `CC(C)(C)OC(=O)N1CCC(NC(=O)c2[nH]cnc2C(=O)N[C@@H](Cc2ccccc2)C(=O)OCc2ccccc2)CC1`
inactive

Recorded test call requested for `COc1ccc(CCNC(=O)c2c3c(nc4ccccc24)C(=O)N(C2CCCCC2)C3)cc1OC`
inactive

Recorded test call requested for CC1CN(C(=O)N2CCC(C(=O)NCc3ccco3)CC2)c2cc(Cl)ccc2O1 (stereo unspecified)
inactive

Recorded test call requested for `COc1ccc(NC(=S)NCCN2CCC(C)CC2)cc1`
inactive

Recorded test call requested for `O=C(COc1ccccc1Cl)Nc1ccc2nc(SCC(=O)N3CCCC3)sc2c1`
inactive

Recorded test call requested for `COc1ccc(NC(=O)N2CCC(Cc3ccccc3)CC2)cc1`
inactive

Recorded test call requested for `CCOC(=O)c1ccc(NC(=O)c2nc[nH]c2C(=O)NCc2ccccc2)cc1`
inactive

Recorded test call requested for CCOc1ccc(C2CC(=O)c3c([nH]c(C(=O)OCc4ccccc4)c3C)C2)cc1 (stereo unspecified)
inactive

Recorded test call requested for `CCN(CC)C(=O)CSc1nc2ccsc2c(=O)n1Cc1ccccc1Cl`
inactive

Recorded test call requested for `Cc1nc(N2CCOCC2)c2c(C(=O)NCc3cccc(Cl)c3)c(C)oc2n1`
inactive

Recorded test call requested for `O=C(Cn1c(=O)nc(-c2ccccc2)c2cc(Cl)ccc21)NCc1ccc(Cl)cc1`
inactive

Recorded test call requested for `CCN(CC(=O)Nc1cc(Cl)ccc1C)C(=O)CSCc1ccc(C)cc1`
inactive

Recorded test call requested for CC1CC(C)CN(S(=O)(=O)c2cccc3nonc23)C1 (stereo unspecified)
inactive

Recorded test call requested for `COc1cc(OC)cc(C(=O)Nc2cc3nn(-c4ccccc4)nc3cc2Cl)c1`
inactive

Recorded test call requested for `O=C(NCc1ccccc1Cl)C1CCN(S(=O)(=O)c2cccc3nonc23)CC1`
inactive
